Values from patent US20260132182A1

Catalogue of binders with associated Human AmyR3 potency [EC50 (pM)]
target.desc: T1, human amylin-3 (a) receptor (human, UniProt P30988 25-474; O60896 24-148)
T1 sequence (looked up) 1: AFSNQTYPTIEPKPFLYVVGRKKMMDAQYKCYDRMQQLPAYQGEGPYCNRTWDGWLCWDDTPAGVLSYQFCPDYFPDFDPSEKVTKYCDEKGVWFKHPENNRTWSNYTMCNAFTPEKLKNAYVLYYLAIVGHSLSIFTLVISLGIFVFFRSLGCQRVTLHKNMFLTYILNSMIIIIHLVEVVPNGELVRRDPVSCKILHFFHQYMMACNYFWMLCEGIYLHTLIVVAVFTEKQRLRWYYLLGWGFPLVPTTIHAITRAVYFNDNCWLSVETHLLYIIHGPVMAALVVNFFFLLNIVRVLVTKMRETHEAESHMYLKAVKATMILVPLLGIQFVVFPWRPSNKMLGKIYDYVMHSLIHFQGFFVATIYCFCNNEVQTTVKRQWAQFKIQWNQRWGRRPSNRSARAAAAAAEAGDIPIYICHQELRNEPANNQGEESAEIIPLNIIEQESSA
T1 sequence (looked up) 2: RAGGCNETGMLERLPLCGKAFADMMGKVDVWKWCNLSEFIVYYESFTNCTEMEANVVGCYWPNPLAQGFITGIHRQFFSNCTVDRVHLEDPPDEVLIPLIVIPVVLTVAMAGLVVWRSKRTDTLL
test.protocol: cell-based or functional assay
Starred links: 1 amine or outer side, 2 acyl side, 3 side chain; linkers in the order of their positions; H or OH if unused. Non-standard residues stand in square brackets, D forms with d. Groups on a side chain read outwards from the residue. *: point of attachment. Decanoyl(10-(4-HOOC-PhO)) = O=C(O)c1ccc(OCCCCCCCCCC(=O)*)cc1; C20 diacid = O=C(O)CCCCCCCCCCCCCCCCCCC(=O)*; C18 diacid = O=C(O)CCCCCCCCCCCCCCCCC(=O)*; C16 diacid = O=C(O)CCCCCCCCCCCCCCC(=O)*; γGlu = O=C(O)[C@H](CCC(=O)[*:2])N[*:1]; εLys = N[C@@H](CCCCN[*:1])C(=O)[*:2]; Trx = NC[C@H]1CC[C@H](C(=O)O)CC1; AEEA = NCCOCCOCC(=O)O; Aib = CC(C)(N)C(=O)O; Ahx = NCCCCCC(=O)O
Give just the numeric value; pM need not be written.

Please review the following examples before continuing.
[
  {
    "binder": "Compound 0295 (peptide) peptide: H[Aib]EGTFTSDVSSYLEEK([AEEA-AEEA-γGlu-C16 diacid])AAREFIAWLVRGRGGGGGASELSTAALGRLSK([AEEA-AEEA-γGlu-C16 diacid])ELHELATLPRTETGSGSP-NH2",
    "Human AmyR3 potency [EC50 (pM)]": 32.7
  },
  {
    "binder": "Compound 0659 (peptide) peptide: H[Aib]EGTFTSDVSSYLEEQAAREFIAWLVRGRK([Ahx-Ahx-γGlu-C20 diacid])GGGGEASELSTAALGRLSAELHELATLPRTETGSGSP-NH2",
    "Human AmyR3 potency [EC50 (pM)]": 11.5
  },
  {
    "binder": "Compound 0093 (peptide) peptide: H[Aib]EGTFTSDVSSYLEGQAAK([AEEA-AEEA-γGlu-C18 diacid])EFIAWLVRGRGGGGGGGGGGGGGGGGGEASELSTAALGRLSAELHELATLPRTETGSGSP-NH2",
    "Human AmyR3 potency [EC50 (pM)]": 8.6
  },
  {
    "binder": "Compound 0180 (peptide) peptide: H[Aib]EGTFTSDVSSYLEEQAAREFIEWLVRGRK([εLys-AEEA-AEEA-γGlu-Trx-C20 diacid])EAEAEASELSTAALGRLSAELHELATLPRTETGSGSP-NH2",
    "Human AmyR3 potency [EC50 (pM)]": 37
  },
  {
    "binder": "Compound 0648 (peptide) peptide: HWEGTFTSDVSSYLEEQAAREFIAWLVRGRK([AEEA-AEEA-γGlu-C18 diacid])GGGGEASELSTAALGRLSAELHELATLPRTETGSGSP-NH2",
    "Human AmyR3 potency [EC50 (pM)]": 9.2
  },
  {
    "binder": "Compound 0431 (peptide) peptide: HAEGTFTSDK([AEEA-AEEA-γGlu-Trx-C20 diacid])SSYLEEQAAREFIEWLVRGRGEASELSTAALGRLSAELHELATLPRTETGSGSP-NH2",
    "Human AmyR3 potency [EC50 (pM)]": 11.9
  },
  {
    "binder": "Compound 0529 (peptide) peptide: H[Aib]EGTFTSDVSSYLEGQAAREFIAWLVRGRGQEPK([AEEA-AEEA-γGlu-C20 diacid])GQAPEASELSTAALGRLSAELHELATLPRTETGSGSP-NH2",
    "Human AmyR3 potency [EC50 (pM)]": 14.1
  }
]

Then this binder:
// fetch Human AmyR3 potency [EC50 (pM)] given entry Compound 0232 (peptide) peptide: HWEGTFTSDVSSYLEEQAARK([AEEA-AEEA-γGlu-Decanoyl(10-(4-HOOC-PhO))])FIEWLVRGRGEGGGGGASELSTAALGRLSAELHELK([AEEA-AEEA-γGlu-Decanoyl(10-(4-HOOC-PhO))])TLPRTETGSGSP-NH2 74.2
